assay: Phase I dose-escalating study, plasma pharmacokinetics in patients with solid tumor; type: in vivo, human; conditions: human, plasma, 50 mg QD, 50 mg QD 4/1 (n = 5), nominal time 6 h; read-out: Mean plasma concentration following the last dose on cycle 1 day 28
experimental_readout: concentration at 6 h

INSERT INTO assay_data (smi, value_measured) VALUES
  ('Cc1[nH]c(/C=C2\C(=O)Nc3ccc(F)cc32)c(C)c1C(=O)NC[C@H](O)CN1CCOCC1', '71.3 ng/mL');

* * *

Experiment: Phase I dose-escalating study, plasma pharmacokinetics in patients with solid tumor
Assay type: in vivo, human
Settings: human, plasma, 150 mg, 150 mg QD 4/1 (n = 5), nominal time 72 h; read-out: Mean plasma concentration following the last dose on cycle 1 day 28
Protocol: Cmax values, or maximum total plasma concentrations, of a compound of formula 1 can be measured according to techniques well known to those skilled in the art. For example, after a compound of formula 1 has been administered to a mammal, blood samples can be taken at fixed time points over a period of time (e.g. 24 hours) and the serum or plasma concentration of compound of formula 1 can be measured using standard analytical techniques known in the art. […]
experimental_readout: concentration at 72 h (ng/mL)

INSERT INTO assay_data (smi, experimental_readout, value_measured) VALUES
  ('Cc1[nH]c(/C=C2\C(=O)Nc3ccc(F)cc32)c(C)c1C(=O)NC[C@H](O)CN1CCOCC1', 'concentration at 72 h', 9.08);
